target: Cyclic GMP-AMP synthase (Homo sapiens, UniProt Q8N884); experiment: Inhibition of full length his-tagged human recombinant cGAS extracted from Escherichia coli BL21 (DE3) incubated for 3 hrs by rapidfire 365 mass spectrometry analysis
Sequence (Q8N884 whole entry): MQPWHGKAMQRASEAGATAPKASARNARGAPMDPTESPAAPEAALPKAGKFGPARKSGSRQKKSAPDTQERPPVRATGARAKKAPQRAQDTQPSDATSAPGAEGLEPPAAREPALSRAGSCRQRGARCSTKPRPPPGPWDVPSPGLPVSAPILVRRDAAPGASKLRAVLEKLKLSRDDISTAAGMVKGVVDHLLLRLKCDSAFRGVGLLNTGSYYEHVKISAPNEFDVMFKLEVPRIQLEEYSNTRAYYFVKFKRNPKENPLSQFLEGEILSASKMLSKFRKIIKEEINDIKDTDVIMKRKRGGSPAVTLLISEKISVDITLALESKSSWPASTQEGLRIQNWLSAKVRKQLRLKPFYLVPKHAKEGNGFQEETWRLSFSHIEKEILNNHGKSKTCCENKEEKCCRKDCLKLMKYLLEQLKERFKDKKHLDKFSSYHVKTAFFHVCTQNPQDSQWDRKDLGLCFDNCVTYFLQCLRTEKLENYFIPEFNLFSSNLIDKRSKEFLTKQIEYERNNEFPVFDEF
pIC50: −log10 of the molar value.
endpoint_name: pIC50

> print(dat)
                                   compound  value.observed
1  COCCCOc1cc(Cl)c(Cl)c2[nH]c3c(c12)[C@H](C)C(=O)NCC3            8.10
2  C[C@@H]1C(=O)NCCc2[nH]c3c(Cl)c(Cl)cc(OCC#N)c3c21            8.70
3  C[C@@H]1C(=O)NCCc2[nH]c3c(Cl)c(Cl)cc(OCCCO)c3c21            8.15
4  CC(F)(F)C[C@@H]1CNC(=O)Cc2c1[nH]c1c(Cl)c(Cl)cc(CC#N)c21            8.10

[P] COCC[C@@H]1CNC(=O)[C@@H](C)c2c1[nH]c1c(Cl)c(Cl)cc(NCCO)c21
[Q] Cn1ncc(-c2cc(Cl)c(Cl)c3[nH]c4c(c23)CC(=O)NCC4CC(=O)O)n1 (stereo unspecified)
Query :: Of P and Q , which one carries the higher reported pIC50? Provide the label of your selected option as the answer.
Result :: Q
(Q: 8.30, P: 8.10)
